# Protocol text: in vitro
# Design: species or system HB2, HEK293
# Assay setup: human, ccd841 cells
Assay endpoint: viability at 48 h, 10 µM (%)
Please state the figure in %; there is no need to write the unit.

- Compound: "Cc1csc(NC(=O)CCl)n1.Cl"
  viability at 48 h, 10 µM, %: 94.9
- Compound: "C=CC(=O)Nc1ccc(C)cn1"
  viability at 48 h, 10 µM, %: 84.1
- Compound: "CC(C)NC(=O)NC(=O)CCl"
  viability at 48 h, 10 µM, %: 81.5
- Compound: "O=C(CCl)Nc1ccccc1[N+](=O)[O-]"
  viability at 48 h, 10 µM, %: 81.8
- Compound: "CC(=O)NNC(=O)CCl"
  viability at 48 h, 10 µM, %: 90.3

For the compound `CN(C(=O)CCl)c1nc2ccccc2s1` , what viability at 48 h, 10 µM is on record?
83.6

Record request: viability at 48 h, 10 µM value, item `CN(Cc1cc(C#N)ccc1F)C(=O)CCl`
69.2

* * *

Attribute: viability at 48 h, 10 µM
# Protocol text: in vitro
# Parameters: species or system HB2, CCD841
# Assay setup: human, hek293 cells

- Compound: "CN1CCN(C(=O)CCl)CC1"
  Assay endpoint: "viability at 48 h, 10 µM"
  Assay value: "90.1%"
- Compound: "N#Cc1c(NC(=O)CCl)sc2c1CCC2"
  Assay endpoint: "viability at 48 h, 10 µM"
  Assay value: "96.6%"
- Compound: "Cc1ccsc1CNC(=O)CCl"
  Assay endpoint: "viability at 48 h, 10 µM"
  Assay value: "83.8%"
- Compound: "CC(NC(=O)CCl)C1CC1 (centres unmarked)"
  Assay endpoint: "viability at 48 h, 10 µM"
  Assay value: "111%"
- Compound: "O=C(CCl)Nc1ccc([N+](=O)[O-])cc1C(F)(F)F"
  Assay endpoint: "viability at 48 h, 10 µM"
  Assay value: "71.9%"
- Compound: "C=CC(=O)N1CCCC(c2cnn(C)c2)C1 (centres unmarked)"
  Assay endpoint: "viability at 48 h, 10 µM"
  Assay value: "81.4%"
- Compound: "CN(Cc1cccc(C(F)(F)F)c1)C(=O)CCl"
  Assay endpoint: "viability at 48 h, 10 µM"
  Assay value: "6.7%"
- Compound: "CN(Cc1ccc2c(c1)OCCO2)C(=O)CCl"
  Assay endpoint: "viability at 48 h, 10 µM"
  Assay value: "52%"
- Compound: "O=C(CCl)N1CCCc2cc([N+](=O)[O-])ccc21"
  Assay endpoint: "viability at 48 h, 10 µM"
  Assay value: "46.6%"
- Compound: "CN(C(=O)CCl)C1=CCCC1"
  Assay endpoint: "viability at 48 h, 10 µM"
  Assay value: "101%"

Please turn your attention to the following entry.
I'd like to know its viability at 48 h, 10 µM. The compound in question is C=CC(=O)N1CCCC(n2nc(C)nc2C)C1 (centres unmarked)
98.5%

* * *

# Subject of test: OTUB2 (OTUB2A) (Homo sapiens)
# Construct: full length residues 1-234, E. coli BL21(DE3)-R3, His tag removed by TEV, construct 27312 Da
# Sequence (Q96DC9 whole entry, the tested form may be a part): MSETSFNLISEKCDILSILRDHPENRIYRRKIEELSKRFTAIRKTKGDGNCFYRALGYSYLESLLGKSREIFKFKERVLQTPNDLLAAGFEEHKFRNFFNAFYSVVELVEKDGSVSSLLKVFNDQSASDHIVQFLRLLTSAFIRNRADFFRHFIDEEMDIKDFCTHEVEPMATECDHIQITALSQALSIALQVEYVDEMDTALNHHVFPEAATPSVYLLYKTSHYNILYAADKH
# Design: Intact protein LC/MS covalent labelling, fragments in pools of five, 200 uM each, 4 °C
# Assay setup: 24 h, 4 °C, pool of five; 200 µM; covalent
Assay endpoint: OTUB2
Respond using a number only.

Guide cases for OTUB2, answers given:
- Compound: "O=C(CCl)N1CCOC2CCCCC21 (stereo not drawn) [PCM-0102940]"
  Subject of test: "OTUB2 (OTUB2A) (Homo sapiens)"
  Assay endpoint: "OTUB2"
  Assay value: 0
- Compound: "CCN(C(=O)CCl)c1ccc(F)cc1 [PCM-0102900]"
  Subject of test: "OTUB2 (OTUB2A) (Homo sapiens)"
  Assay endpoint: "OTUB2"
  Assay value: 0
- Compound: "N#Cc1oc2ccccc2c1NC(=O)CCl [PCM-0102252]"
  Subject of test: "OTUB2 (OTUB2A) (Homo sapiens)"
  Assay endpoint: "OTUB2"
  Assay value: 0.86
- Compound: "C=CC(=O)NC1CCc2nc(-c3cc(F)ccc3F)cn2C1 (stereo not drawn) [PCM-0102566]"
  Subject of test: "OTUB2 (OTUB2A) (Homo sapiens)"
  Assay endpoint: "OTUB2"
  Assay value: 0
- Compound: "O=C(CCl)Nc1ncc(Br)s1 [PCM-0102326]"
  Subject of test: "OTUB2 (OTUB2A) (Homo sapiens)"
  Assay endpoint: "OTUB2"
  Assay value: 0.06

Would you kindly look at the next entry?
Quick one: OTUB2 of C=CC(=O)N1CCCN(C(=O)c2cc(Cl)cn2C)CC1 [PCM-0103003] ?
0
